These data points were gathered from patent US20110059889A1.

- ASSAYED_SYSTEM: T1, soluble human FcRn (shFcRn) (human, UniProt P55899 24-297; P61769 21-119)
- T1 construct: Biotinylated for the ELISA, amine-coupled to a CM5 chip for SPR; also called biotinylated shFcRn
- T1 sequence (P55899 24-297 limits assumed, chain 1 of 2): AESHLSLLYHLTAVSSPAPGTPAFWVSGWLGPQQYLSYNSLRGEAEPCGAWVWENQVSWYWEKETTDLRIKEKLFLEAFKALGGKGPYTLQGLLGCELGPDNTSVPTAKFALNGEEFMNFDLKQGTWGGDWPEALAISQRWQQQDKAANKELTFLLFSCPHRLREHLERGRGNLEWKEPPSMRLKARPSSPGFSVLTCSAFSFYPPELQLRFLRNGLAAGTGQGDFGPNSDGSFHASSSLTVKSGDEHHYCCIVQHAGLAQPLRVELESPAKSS
- T1 sequence (P61769 21-119 limits assumed, chain 2 of 2): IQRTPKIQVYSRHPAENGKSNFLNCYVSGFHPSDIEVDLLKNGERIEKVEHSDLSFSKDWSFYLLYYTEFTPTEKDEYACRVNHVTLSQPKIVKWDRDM
- ASSAY_DETAILS: SPR pH 6; 2-PyrrolidinylAla in place of His
ENDPOINT_LABEL: pKd
Remember the convention: pKd equals -log10 of concentration in molar.

Any idea what its pKd is? The binder is RFCTGXFGGLYPC (Pen 3; 2-PyrrolidinylAla 6; Sar 9; NMeLeu 10; disulfide 3-13; C-terminal amide) [Peptide No. 262]
5.08
